molecular target: Protein cereblon/CREB-binding protein (Homo sapiens, UniProt Q92793+Q96SW2); assay: PROTAC activity at CBP/CRBN in human U2OS cells assessed as induction of CBP degradation incubated for 24 hrs by Nan-glo HiBiT lytic assay; assay type: cell-based
Sequence (Q92793 whole entry): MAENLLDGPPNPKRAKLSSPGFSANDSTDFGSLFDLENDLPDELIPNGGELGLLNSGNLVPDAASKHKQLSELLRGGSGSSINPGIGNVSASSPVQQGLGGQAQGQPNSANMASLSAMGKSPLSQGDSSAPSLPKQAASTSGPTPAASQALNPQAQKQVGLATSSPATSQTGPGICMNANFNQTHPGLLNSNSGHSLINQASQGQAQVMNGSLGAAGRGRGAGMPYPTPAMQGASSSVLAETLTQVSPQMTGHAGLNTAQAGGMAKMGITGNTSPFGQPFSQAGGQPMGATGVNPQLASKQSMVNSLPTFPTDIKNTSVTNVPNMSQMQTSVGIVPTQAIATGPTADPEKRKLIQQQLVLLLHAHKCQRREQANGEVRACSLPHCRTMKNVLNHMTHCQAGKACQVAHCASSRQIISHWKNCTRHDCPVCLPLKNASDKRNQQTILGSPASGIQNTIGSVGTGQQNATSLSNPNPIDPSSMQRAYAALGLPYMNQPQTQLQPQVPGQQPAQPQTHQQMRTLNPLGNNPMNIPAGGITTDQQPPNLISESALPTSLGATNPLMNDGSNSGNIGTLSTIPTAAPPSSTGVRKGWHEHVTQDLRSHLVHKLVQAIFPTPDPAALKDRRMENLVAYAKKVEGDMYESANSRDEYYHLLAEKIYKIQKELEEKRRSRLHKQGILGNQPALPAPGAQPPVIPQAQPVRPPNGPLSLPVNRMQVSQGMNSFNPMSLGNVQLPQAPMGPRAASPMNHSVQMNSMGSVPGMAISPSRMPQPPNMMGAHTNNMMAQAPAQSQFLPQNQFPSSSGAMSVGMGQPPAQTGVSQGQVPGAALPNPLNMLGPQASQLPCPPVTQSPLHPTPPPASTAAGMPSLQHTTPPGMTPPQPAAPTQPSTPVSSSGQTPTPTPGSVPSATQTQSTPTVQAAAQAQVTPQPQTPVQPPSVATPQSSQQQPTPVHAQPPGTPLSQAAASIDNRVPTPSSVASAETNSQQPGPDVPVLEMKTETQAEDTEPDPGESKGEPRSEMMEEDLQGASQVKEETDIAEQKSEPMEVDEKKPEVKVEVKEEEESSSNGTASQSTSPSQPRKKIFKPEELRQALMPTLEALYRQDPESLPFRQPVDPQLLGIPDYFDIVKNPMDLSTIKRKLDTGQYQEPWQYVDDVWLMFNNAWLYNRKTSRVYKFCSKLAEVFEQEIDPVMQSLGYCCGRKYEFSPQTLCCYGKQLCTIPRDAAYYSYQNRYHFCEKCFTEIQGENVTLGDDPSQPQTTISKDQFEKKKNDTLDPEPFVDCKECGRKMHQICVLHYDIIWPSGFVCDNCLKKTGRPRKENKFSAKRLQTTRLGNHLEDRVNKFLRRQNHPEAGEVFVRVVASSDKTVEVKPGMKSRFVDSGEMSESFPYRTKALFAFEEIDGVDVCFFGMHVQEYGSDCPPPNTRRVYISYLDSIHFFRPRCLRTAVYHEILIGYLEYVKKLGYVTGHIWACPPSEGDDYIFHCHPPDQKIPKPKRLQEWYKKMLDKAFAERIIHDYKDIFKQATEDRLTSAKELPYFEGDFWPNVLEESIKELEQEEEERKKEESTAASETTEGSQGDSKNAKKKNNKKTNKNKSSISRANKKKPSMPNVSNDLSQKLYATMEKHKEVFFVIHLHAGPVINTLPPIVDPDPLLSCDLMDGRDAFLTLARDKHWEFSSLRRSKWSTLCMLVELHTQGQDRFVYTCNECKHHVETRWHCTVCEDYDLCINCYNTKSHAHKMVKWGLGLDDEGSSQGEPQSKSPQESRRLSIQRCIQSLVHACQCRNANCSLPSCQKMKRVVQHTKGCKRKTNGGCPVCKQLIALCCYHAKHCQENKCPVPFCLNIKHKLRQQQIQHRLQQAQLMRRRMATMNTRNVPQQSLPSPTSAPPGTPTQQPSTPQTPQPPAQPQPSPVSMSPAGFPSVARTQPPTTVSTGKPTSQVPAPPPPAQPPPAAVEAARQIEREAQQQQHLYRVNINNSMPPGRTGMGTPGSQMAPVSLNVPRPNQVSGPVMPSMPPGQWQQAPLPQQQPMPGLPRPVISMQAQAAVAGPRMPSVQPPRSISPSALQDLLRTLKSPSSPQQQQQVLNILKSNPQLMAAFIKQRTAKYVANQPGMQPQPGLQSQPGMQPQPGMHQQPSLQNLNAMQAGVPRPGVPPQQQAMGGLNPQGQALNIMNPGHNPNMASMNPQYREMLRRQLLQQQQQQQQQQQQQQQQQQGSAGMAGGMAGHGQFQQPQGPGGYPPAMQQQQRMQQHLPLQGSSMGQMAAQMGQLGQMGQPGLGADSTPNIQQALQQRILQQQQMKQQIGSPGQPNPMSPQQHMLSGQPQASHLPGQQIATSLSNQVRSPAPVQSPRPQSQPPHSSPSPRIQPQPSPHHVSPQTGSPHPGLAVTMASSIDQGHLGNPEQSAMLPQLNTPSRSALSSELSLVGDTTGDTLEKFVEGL
Sequence (Q96SW2 whole entry): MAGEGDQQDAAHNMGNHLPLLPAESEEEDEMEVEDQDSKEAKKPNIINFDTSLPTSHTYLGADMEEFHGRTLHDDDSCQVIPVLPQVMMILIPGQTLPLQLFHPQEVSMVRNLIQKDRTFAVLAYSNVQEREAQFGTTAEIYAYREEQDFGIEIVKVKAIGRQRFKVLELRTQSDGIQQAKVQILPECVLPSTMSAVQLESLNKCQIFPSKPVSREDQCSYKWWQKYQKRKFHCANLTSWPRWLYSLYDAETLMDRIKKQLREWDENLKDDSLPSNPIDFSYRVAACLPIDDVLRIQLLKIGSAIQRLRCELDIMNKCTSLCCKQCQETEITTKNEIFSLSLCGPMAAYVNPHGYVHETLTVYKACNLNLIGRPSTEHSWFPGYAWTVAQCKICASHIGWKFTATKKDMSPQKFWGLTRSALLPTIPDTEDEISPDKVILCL
Catalogue of DC50 readings, one per entry.

# Molecule, Unit Text, Op, DC50
rows = [
    ("CC(=O)N1CCc2c(c(N3CCCc4cc(-c5cnn(C)c5)c(C(F)F)cc43)nn2C2CCN(C(=O)CCN3Cc4cc5c(cc4C3)C(=O)N(C3CCC(=O)NC3=O)C5=O)CC2)C1 (stereo unspecified)", "nM", ">", 1000),
    ("CC(=O)N1CCc2c(c(N3CCCc4cc(-c5cccs5)c(C(F)F)cc43)nn2C2CCN(C(=O)CN3Cc4cc5c(cc4C3)C(=O)N(C3CCC(=O)NC3=O)C5=O)CC2)C1 (stereo unspecified)", "nM", "=", 24),
    ("CCc1cc2c(cc1C(F)F)N(c1nn(C3CCN(C(=O)CN4Cc5cc6c(cc5C4)C(=O)N(C4CCC(=O)NC4=O)C6=O)CC3)c3c1CN(C(C)=O)CC3)CCC2 (stereo unspecified)", "nM", "=", 89),
    ("CC(=O)N1CCc2c(c(N3CCCc4cc(C5CCCCC5)c(C(F)F)cc43)nn2C2CCN(C(=O)CN3Cc4cc5c(cc4C3)C(=O)N(C3CCC(=O)NC3=O)C5=O)CC2)C1 (stereo unspecified)", "nM", "=", 37),
    ("CC(=O)N1CCc2c(c(N3CCCc4ccc(C(F)F)cc43)nn2C2CCN(C(=O)CN3Cc4cc5c(cc4C3)C(=O)N(C3CCC(=O)NC3=O)C5=O)CC2)C1 (stereo unspecified)", "nM", "=", 519),
    ("CC(=O)N1CCc2c(c(N3CCCc4cc(C(C)C)c(C(F)F)cc43)nn2C2CCN(C(=O)CN3Cc4cc5c(cc4C3)C(=O)N(C3CCC(=O)NC3=O)C5=O)CC2)C1 (stereo unspecified)", "nM", "=", 57),
]

====

assay: Drug concentration in rat plasma at 3 mg/kg, po measured at 4 hrs by LC-MS/MS analysis; type: ADME, organism-based

# Compound, concentration at 4 h, ng/mL
measured = [
    ("CC(=O)N1CCc2c(c(N3CCCc4ccc(C(F)F)cc43)nn2C2CCN(C(=O)CN3Cc4cc5c(cc4C3)C(=O)N(C3CCC(=O)NC3=O)C5=O)CC2)C1 (stereo unspecified)", 0.7),
]

====

experiment: Drug distribution in SCID mouse liver at 1 mg/kg, po measured at 6 hrs by LC-MS/MS analysis; type: ADME, organism-based; conditions: read-out: Ct

# Molecule, Unit Text, concentration at 6 h
data = [
    ("CC(=O)N1CCc2c(c(N3CCCc4cc(-c5cnn(C)c5)c(C(F)F)cc43)nn2[C@H]2CC[C@H](CN3Cc4cc5c(cc4C3)C(=O)N(C3CCC(=O)NC3=O)C5=O)CC2)C1 (stereo partly specified)", "ng/mL", 301),
]

====

test: Drug distribution in Sprague-Dawley rat plasma at 10 mg/kg, po measured at 24 hrs by LC-MS/MS analysis; format: ADME, organism-based
Measurement Name: concentration at 24 h (ng/mL)

# Molecule, Measurement Name, Unit Text, Experimental Result
rows = [
    ("CC(=O)N1CCc2c(c(N3CCCc4cc(-c5cnn(C)c5)c(C(F)F)cc43)nn2[C@H]2CC[C@H](CN3Cc4cc5c(cc4C3)C(=O)N(C3CCC(=O)NC3=O)C5=O)CC2)C1 (stereo partly specified)", "concentration at 24 h", "ng/mL", 1.3),
]
